targetDesc: Nuclear receptor ROR-beta (Homo sapiens, UniProt Q92753)
Sequence (Q92753 whole entry, the tested form may be a part): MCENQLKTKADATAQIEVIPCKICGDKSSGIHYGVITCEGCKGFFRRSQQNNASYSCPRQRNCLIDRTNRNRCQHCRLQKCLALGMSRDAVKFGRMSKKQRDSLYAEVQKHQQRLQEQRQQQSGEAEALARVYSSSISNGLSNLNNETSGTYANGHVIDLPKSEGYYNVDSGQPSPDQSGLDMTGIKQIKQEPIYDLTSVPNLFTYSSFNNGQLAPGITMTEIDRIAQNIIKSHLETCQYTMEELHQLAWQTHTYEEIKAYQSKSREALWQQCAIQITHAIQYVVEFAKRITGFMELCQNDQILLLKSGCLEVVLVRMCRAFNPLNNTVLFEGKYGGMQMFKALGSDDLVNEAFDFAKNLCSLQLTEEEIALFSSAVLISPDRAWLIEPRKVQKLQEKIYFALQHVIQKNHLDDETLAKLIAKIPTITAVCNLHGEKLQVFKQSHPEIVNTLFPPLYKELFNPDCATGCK
protocolDescription: Inverse agonist activity at human Gal4-fused RORbeta LBD (200 to 559 residues) expressed in human Jurkat cells measured after 18 hrs by steady-glo luciferase reporter gene assay
Assay type: cell-based
pEC50: −log10 of the molar value.
Catalogue of molecules with associated pEC50

Reference set, count: 2
smilesEntry | pEC50
O=C(O)[C@@H]1[C@@H]2C[C@@H](C(=O)N3CC[C@](c4ccc(C(F)(C(F)(F)F)C(F)(F)F)cc4)(S(=O)(=O)c4ccc(F)cc4)C3)C[C@@H]21 | < 4.40
CC1(C(=O)N2CC[C@](c3ccc(C(F)(C(F)(F)F)C(F)(F)F)cc3)(S(=O)(=O)c3ccc(F)cc3)C2)CCS(=O)(=O)CC1 | < 4.40

Please provide the recorded pEC50 for "O=C(O)C12CCC(C(=O)N3CC[C@](c4ccc(C(F)(C(F)(F)F)C(F)(F)F)cc4)(S(=O)(=O)c4ccc(F)cc4)C3)(CC1)CC2" , tested on Nuclear receptor ROR-beta (Homo sapiens, UniProt Q92753).
< 4.40

====

targetDesc: Nuclear receptor subfamily 1 group I member 2 (Homo sapiens)
Sequence (O75469 whole entry): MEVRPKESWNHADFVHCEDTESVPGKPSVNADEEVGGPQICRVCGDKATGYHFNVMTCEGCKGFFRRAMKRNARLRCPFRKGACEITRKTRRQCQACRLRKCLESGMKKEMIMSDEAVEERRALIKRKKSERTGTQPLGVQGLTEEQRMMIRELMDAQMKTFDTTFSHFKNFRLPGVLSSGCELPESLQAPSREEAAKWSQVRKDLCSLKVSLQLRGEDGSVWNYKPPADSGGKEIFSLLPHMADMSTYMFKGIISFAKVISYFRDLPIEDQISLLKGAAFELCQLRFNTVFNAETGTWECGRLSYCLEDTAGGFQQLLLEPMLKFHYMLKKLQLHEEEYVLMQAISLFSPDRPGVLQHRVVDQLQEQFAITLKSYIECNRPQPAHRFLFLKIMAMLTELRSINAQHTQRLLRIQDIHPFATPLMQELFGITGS
protocolDescription: Transactivation of PXR (unknown origin) expressed in human HepG2 cells
Assay type: cell-based
appliedConditions: hepg2
pEC50: −log10 of the molar value.
quantityMeasured: pEC50

State the recorded pEC50 for this entry: O=C(O)C1CCC(O)(C(=O)N2CC[C@](c3ccc(C(F)(C(F)(F)F)C(F)(F)F)cc3)(S(=O)(=O)c3ccc(F)cc3)C2)CC1 (stereo in doubt; 13)
< 4.30

====

targetDesc: Oxysterols receptor LXR-beta (Homo sapiens, UniProt P55055)
Sequence (P55055 whole entry, the tested form may be a part): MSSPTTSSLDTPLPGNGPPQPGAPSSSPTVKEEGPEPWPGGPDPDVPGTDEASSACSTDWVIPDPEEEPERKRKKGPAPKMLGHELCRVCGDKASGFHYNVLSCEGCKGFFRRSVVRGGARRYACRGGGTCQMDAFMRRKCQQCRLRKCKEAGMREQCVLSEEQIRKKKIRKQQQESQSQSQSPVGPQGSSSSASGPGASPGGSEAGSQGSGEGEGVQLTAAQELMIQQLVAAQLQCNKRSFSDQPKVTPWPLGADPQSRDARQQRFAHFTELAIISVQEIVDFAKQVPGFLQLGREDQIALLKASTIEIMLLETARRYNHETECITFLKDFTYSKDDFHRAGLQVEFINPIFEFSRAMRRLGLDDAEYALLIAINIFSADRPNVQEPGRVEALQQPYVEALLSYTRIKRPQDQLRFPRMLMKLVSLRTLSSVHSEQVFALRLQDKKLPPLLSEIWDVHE
protocolDescription: Transactivation of human GAL4-fused LXRbeta expressed in African green monkey CV1 cells
pEC50: −log10 of the molar value.
Catalogue of molecules with associated pEC50

molecule | pEC50
CS(=O)(=O)C1CCC(C(=O)N2CC[C@](c3ccc(C(F)(C(F)(F)F)C(F)(F)F)cc3)(S(=O)(=O)c3ccc(F)cc3)C2)CC1 (stereo in doubt; 29) | < 5.12

State the recorded pEC50 for this entry: "COC(=O)[C@H]1CC[C@H](C(=O)N2CC[C@](c3ccc(C(F)(C(F)(F)F)C(F)(F)F)cc3)(S(=O)(=O)c3ccc(F)cc3)C2)CC1"
< 5.12

Follow-up item: "C[C@]1(C(=O)N2CC[C@](c3ccc(C(F)(C(F)(F)F)C(F)(F)F)cc3)(S(=O)(=O)c3ccc(F)cc3)C2)CC[C@H](C(=O)O)CC1"
< 5.12

Follow-up item: "CC[C@]1(C(=O)N2CC[C@](c3ccc(C(F)(C(F)(F)F)C(F)(F)F)cc3)(S(=O)(=O)c3ccc(F)cc3)C2)CC[C@H](C(=O)O)CC1"
< 5.12

Follow-up item: "NC(=O)[C@H]1CC[C@H](C(=O)N2CC[C@](c3ccc(C(F)(C(F)(F)F)C(F)(F)F)cc3)(S(=O)(=O)c3ccc(F)cc3)C2)CC1"
< 5.12

Follow-up item: "O=C(O)[C@H]1CC[C@H](C(=O)N2CC[C@](c3ccc(C(F)(C(F)(F)F)C(F)(F)F)cc3)(S(=O)(=O)c3ccc(F)cc3)C2)CC1"
< 5.12

Follow-up item: "O=C(O)C12CCC(C(=O)N3CC[C@](c4ccc(C(F)(C(F)(F)F)C(F)(F)F)cc4)(S(=O)(=O)c4ccc(F)cc4)C3)(CC1)CC2"
< 5.12

Follow-up item: "CCC[C@]1(C(=O)N2CC[C@](c3ccc(C(F)(C(F)(F)F)C(F)(F)F)cc3)(S(=O)(=O)c3ccc(F)cc3)C2)CC[C@H](C(=O)O)CC1"
< 5.12

Follow-up item: "O=C(N1CC[C@](c2ccc(C(F)(C(F)(F)F)C(F)(F)F)cc2)(S(=O)(=O)c2ccc(F)cc2)C1)C1(CO)CCS(=O)(=O)CC1"
< 5.12

Follow-up item: "C[C@]1(C(=O)N2CC[C@](c3ccc(C(F)(C(F)(F)F)C(F)(F)F)cc3)(S(=O)(=O)c3ccc(F)cc3)C2)CC[C@@H](C(=O)O)CC1"
< 5.12

Follow-up item: O=C1NC(=O)C2(CCC(C(=O)N3CC[C@](c4ccc(C(F)(C(F)(F)F)C(F)(F)F)cc4)(S(=O)(=O)c4ccc(F)cc4)C3)CC2)N1 (stereo in doubt; 25)
< 5.12

Follow-up item: CS(=O)(=O)C1CCC(C(=O)N2CC[C@](c3ccc(C(F)(C(F)(F)F)C(F)(F)F)cc3)(S(=O)(=O)c3ccc(F)cc3)C2)CC1 (stereo in doubt; 28)
< 5.12

Follow-up item: "O=C(C1CCS(=O)(=O)CC1)N1CC[C@](c2ccc(C(F)(C(F)(F)F)C(F)(F)F)cc2)(S(=O)(=O)c2ccc(F)cc2)C1"
< 5.12

====

targetDesc: Nuclear receptor ROR-beta (Homo sapiens)
protocolDescription: Inverse agonist activity at human Gal4-fused RORbeta LBD (200 to 559 residues) expressed in human Jurkat cells measured after 18 hrs by steady-glo luciferase reporter gene assay
Format: cell-based
quantityMeasured: EC50

Reference set, count: 2
smilesEntry | observed
O=C(O)[C@H]1[C@@H]2C[C@@H](C(=O)N3CC[C@](c4ccc(C(F)(C(F)(F)F)C(F)(F)F)cc4)(S(=O)(=O)c4ccc(F)cc4)C3)C[C@@H]21 | > 40 µM
O=C([C@H]1CC[C@H](CO)CC1)N1CC[C@](c2ccc(C(F)(C(F)(F)F)C(F)(F)F)cc2)(S(=O)(=O)c2ccc(F)cc2)C1 | > 40 µM

As a next step, examine the compound that follows.
Please provide the recorded EC50 for "O=C(O)[C@H]1CC[C@](F)(C(=O)N2CC[C@](c3ccc(C(F)(C(F)(F)F)C(F)(F)F)cc3)(S(=O)(=O)c3ccc(F)cc3)C2)CC1" , tested on Nuclear receptor ROR-beta (Homo sapiens).
> 40 µM

====

protocolDescription: AUC in Balb/c mouse at 10 mg/kg, po
Type: ADME, organism-based
appliedConditions: in vivo
Catalogue of compounds with associated AUC

smilesEntry | AUC
O=C(O)C12CCC(C(=O)N3CC[C@](c4ccc(C(F)(C(F)(F)F)C(F)(F)F)cc4)(S(=O)(=O)c4ccc(F)cc4)C3)(CC1)CC2 | 24 µM·h

State the recorded AUC for this entry: "CC[C@]1(C(=O)N2CC[C@](c3ccc(C(F)(C(F)(F)F)C(F)(F)F)cc3)(S(=O)(=O)c3ccc(F)cc3)C2)CC[C@H](C(=O)O)CC1"
16.6 µM·h

====

targetDesc: Cytochrome P450 1A2 (Homo sapiens, UniProt P05177)
Sequence (P05177 whole entry): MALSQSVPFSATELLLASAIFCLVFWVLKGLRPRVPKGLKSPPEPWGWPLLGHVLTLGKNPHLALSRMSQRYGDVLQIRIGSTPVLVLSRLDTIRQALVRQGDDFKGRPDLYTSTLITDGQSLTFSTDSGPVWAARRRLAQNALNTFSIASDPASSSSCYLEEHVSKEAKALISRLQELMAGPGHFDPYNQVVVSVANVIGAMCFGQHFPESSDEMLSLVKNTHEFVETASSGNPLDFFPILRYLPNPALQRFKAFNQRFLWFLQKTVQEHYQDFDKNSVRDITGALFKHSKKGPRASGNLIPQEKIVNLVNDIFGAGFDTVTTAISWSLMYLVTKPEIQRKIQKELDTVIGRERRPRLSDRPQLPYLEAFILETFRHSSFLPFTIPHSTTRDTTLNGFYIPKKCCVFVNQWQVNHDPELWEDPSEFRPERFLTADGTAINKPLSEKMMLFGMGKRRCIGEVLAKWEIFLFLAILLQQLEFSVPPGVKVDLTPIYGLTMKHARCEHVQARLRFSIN
pIC50: −log10 of the molar value.
quantityMeasured: pIC50

smilesEntry | pIC50
CC[C@]1(C(=O)N2CC[C@](c3ccc(C(F)(C(F)(F)F)C(F)(F)F)cc3)(S(=O)(=O)c3ccc(F)cc3)C2)CC[C@H](C(=O)O)CC1 | < 5.00

As a next step, examine the molecule that follows.
State the recorded pIC50 for this entry: "O=C(O)C12CCC(C(=O)N3CC[C@](c4ccc(C(F)(C(F)(F)F)C(F)(F)F)cc4)(S(=O)(=O)c4ccc(F)cc4)C3)(CC1)CC2"
< 5.00

====

targetDesc: PXR (Homo sapiens, UniProt O75469)
Sequence (O75469 whole entry): as the sequence (O75469 whole entry) above
protocolDescription: Transactivation of PXR (unknown origin) expressed in human HepG2 cells assessed as maximum receptor activation response relative to control
Format: cell-based
appliedConditions: human HepG2 cells that express PXR, read-out: %max
The label is t for Emax below 20% and f for Emax equal to or exceeding 20%.

smilesEntry | assignedClass
O=C(N1CC[C@](c2ccc(C(F)(C(F)(F)F)C(F)(F)F)cc2)(S(=O)(=O)c2ccc(F)cc2)C1)C1(CO)CCS(=O)(=O)CC1 | t
C[C@]1(C(=O)N2CC[C@](c3ccc(C(F)(C(F)(F)F)C(F)(F)F)cc3)(S(=O)(=O)c3ccc(F)cc3)C2)CC[C@@H](C(=O)O)CC1 | t
C[C@]1(C(=O)N2CC[C@](c3ccc(C(F)(C(F)(F)F)C(F)(F)F)cc3)(S(=O)(=O)c3ccc(F)cc3)C2)CC[C@H](C(=O)O)CC1 | t

Consider the record given below.
Threshold test, Emax < 20%: "CCC1(C(=O)N2CC[C@](c3ccc(C(F)(C(F)(F)F)C(F)(F)F)cc3)(S(=O)(=O)c3ccc(F)cc3)C2)CCS(=O)(=O)CC1"
f
